Values compiled from patent US10806794B2.

As shown below, each of these compounds has a reported pIC50 value.
Molecular target: UniProt:P11712
Sequence (P11712 whole entry): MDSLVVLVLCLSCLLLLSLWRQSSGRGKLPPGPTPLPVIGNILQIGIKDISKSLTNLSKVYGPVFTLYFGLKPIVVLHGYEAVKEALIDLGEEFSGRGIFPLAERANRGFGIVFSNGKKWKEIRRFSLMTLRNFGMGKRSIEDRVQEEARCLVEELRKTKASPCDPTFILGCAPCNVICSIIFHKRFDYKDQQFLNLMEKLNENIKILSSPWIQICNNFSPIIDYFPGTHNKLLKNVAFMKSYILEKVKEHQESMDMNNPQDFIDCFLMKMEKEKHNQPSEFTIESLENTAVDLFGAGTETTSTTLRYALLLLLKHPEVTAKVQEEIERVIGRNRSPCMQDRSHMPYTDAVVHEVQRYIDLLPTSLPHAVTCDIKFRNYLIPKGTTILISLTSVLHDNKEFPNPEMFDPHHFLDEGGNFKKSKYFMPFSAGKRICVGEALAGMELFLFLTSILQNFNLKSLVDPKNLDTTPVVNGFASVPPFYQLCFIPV
Assay: biochemical
pIC50: −log10 of the molar value.
observable: pIC50

>>> observed("COCCOCCOCCOC(=O)NC(C(=O)NC(Cc1ccccc1)C(O)CN(Cc1ccc(-c2ccccn2)cc1)NC(=O)C(NC(=O)OC)C(C)(C)C)C(C)(C)C (centres unmarked)")
4.61
>>> observed("COC(=O)N[C@H](C(=O)N[C@@H](Cc1ccccc1)[C@@H](O)CN(Cc1ccc(-c2ccccn2)cc1)NC(=O)[C@@H](NC(=O)OC)C(C)(C)C)C(C)(C)C [Atazanavir, reference compound]")
4.99
